Target: Superoxide dismutase [Mn] (Homo sapiens, UniProt P04179)
Sequence (P04179 25-222): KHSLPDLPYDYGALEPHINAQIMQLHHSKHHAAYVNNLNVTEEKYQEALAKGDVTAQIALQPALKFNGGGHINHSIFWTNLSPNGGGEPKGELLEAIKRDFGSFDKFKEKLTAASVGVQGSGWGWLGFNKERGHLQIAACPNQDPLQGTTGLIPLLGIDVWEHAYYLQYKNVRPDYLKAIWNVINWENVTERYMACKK
measured-parameter: pKd
Schema: pKd number; meaning minus log10 of the concentration expressed in molar units.

Give the measured pKd for COc1c(O)cc(O)c2c(=O)cc(-c3ccccc3)oc12 5.29

These measurements were taken from paper PMC5944259.
